Listed below: melting point values for each entry.
quantity-name: melting point

compound: NCC1CCN(CCc2ccc(O)cc2)CC1
result: 166 to 168 °C
//
compound: Clc1ccc(C=NN=c2ccn(-c3ccc(Cl)cc3)cc2)cc1
result: 165 to 166 °C
//
compound: COC(=O)c1ccc(C#CCc2cccc3c2SCCC3(C)C)cc1
result: 92 °C
//
compound: CC1(C2CC2)OC(=O)Nc2ccc(-c3cccc(Cl)c3)cc21 (centres undefined)
result: 158 to 159 °C

----------
// melting point lookup, one value per entry
quantity-name: melting point

compound: CCC(=O)c1cc(Cl)c(O)c(Cl)c1
result: 50 to 52 °C
//
compound: COC(=N)N1CCC(c2nn(C)c3cc(F)ccc23)CC1
result: 132 to 135 °C
//
compound: CCOC(=O)c1ccc(C(F)(F)F)c(N(C)C(C)=O)n1
result: 145 to 146 °C
//
compound: Cc1ccc2c(c1C)OCC(NNc1ncnc3c1ncn3C1OC(CO)C(O)C1O)C2 (stereo not given)
result: 170 to 172 °C
//
compound: CCOC1(OC)CC(C)=C(CCc2cccc(OC)c2)C=C1OC (stereo not given)
result: 178 to 180 °C
